# Subject of test: Cin5 (UniProt P40917)
# Sequence: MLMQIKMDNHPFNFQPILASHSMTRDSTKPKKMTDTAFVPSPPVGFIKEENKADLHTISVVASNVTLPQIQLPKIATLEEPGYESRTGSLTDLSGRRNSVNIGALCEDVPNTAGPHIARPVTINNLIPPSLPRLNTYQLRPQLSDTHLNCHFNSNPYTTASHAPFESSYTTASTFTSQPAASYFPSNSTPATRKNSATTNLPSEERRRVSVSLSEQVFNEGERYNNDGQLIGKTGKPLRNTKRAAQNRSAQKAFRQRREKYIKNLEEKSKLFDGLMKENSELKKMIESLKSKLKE
# Assay text: PBM E-score (8-mer binding enrichment) (E-score (-0.5 to 0.5)); higher = stronger / more preferred TF binding
# Measurement parameters: protein concentration: 100 nM; construct: GST-full length
Over roughly 33,000 sequences, “E-score (-0.5 to 0.5)” has its median near -0.0059; the highest 2% begin near 0.26. This is one part of a sample in which the highest values are shown more often than they occur.
Readout label: PBM E-score
Just the number, please, no unit after it.

Worked cases, PBM E-score given:
GATCGTAA	0.116
GTGATCGA	0.273
AAGACAAC	0.274
CTGATCGA	-0.179
GTAATCTA	0.354
AGGTTTAT	0.251

*Q* Using the record for ATGAATGA , report its PBM E-score.
*A* 0.143

*Q* Then CAACGGAA ?
*A* 0.103

*Q* Then CAGACAAC ?
*A* 0.0843

*Q* Then TATCGTAA ?
*A* 0.28

*Q* Then ACTTAACA ?
*A* 0.0535

*Q* Then TAACGTAA ?
*A* 0.415

###

# Subject of test: Cin5 (UniProt P40917)
# Sequence: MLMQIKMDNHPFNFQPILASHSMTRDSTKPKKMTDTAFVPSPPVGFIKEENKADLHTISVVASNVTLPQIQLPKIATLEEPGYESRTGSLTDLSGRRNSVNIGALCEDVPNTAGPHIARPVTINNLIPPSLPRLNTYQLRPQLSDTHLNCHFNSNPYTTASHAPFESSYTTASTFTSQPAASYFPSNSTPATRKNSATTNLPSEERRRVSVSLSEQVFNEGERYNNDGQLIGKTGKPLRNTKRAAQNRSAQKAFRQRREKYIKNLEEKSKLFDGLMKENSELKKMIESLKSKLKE
# Assay text: PBM E-score (8-mer binding enrichment) (E-score (-0.5 to 0.5)); higher = stronger / more preferred TF binding
# Measurement parameters: protein concentration: 100 nM; construct: GST-full length
The full ranking holds about 33,000 sequences; the median of “E-score (-0.5 to 0.5)” is about -0.0059, and the highest 2% start at about 0.26. For the sample, the highest values were picked, then their nearest neighbours and some sequences at random.
# reported PBM E-score; entries follow

AGATTAGA	-0.0761

*Q* Using the record for AAACTAGA , report its PBM E-score.
*A* -0.116

###

# Subject of test: Cin5 (UniProt P40917)
# Sequence: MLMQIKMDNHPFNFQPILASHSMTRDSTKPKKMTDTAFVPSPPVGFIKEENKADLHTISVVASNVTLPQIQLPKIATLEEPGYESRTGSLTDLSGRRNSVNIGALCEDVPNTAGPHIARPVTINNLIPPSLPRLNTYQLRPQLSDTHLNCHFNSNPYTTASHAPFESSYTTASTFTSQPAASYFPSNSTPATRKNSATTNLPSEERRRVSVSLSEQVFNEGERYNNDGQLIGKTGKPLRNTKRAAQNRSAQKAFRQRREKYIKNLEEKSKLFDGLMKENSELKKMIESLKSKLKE
# Assay text: PBM E-score (8-mer binding enrichment) (E-score (-0.5 to 0.5)); higher = stronger / more preferred TF binding
# Measurement parameters: protein concentration: 100 nM; construct: GST-full length
Over roughly 33,000 sequences, “E-score (-0.5 to 0.5)” has its median near -0.0059; the highest 2% begin near 0.26. The list comes from a sample in which the highest values are over-represented; it also holds close analogues and randomly drawn sequences.
Readout label: PBM E-score

Worked cases, PBM E-score given:
AATATATT	0.363
GGCAAAAA	0.202
CATATAGG	0.0225
AATATATA	0.18
AATATAGC	0.0896
GATTATTA	0.316
ATTTCCCA	0.165
ATTTCCCC	0.0813

*Q* Give Cin5 (UniProt P40917) PBM E-score for CCATCACG
*A* -0.0302

*Q* Then AATATAAT ?
*A* 0.177

*Q* Then AATATAAG ?
*A* 0.276

###

# Subject of test: Cin5 (UniProt P40917)
# Sequence: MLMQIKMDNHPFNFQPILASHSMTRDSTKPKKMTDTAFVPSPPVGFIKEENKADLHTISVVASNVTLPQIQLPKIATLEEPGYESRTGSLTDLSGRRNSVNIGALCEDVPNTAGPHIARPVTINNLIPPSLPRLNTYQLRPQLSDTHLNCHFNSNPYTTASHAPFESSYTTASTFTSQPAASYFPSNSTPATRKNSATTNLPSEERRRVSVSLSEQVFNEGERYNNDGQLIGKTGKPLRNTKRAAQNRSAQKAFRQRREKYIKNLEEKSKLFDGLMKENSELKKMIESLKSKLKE
# Assay text: PBM E-score (8-mer binding enrichment) (E-score (-0.5 to 0.5)); higher = stronger / more preferred TF binding
# Measurement parameters: protein concentration: 100 nM; construct: GST-full length
Over roughly 33,000 sequences, “E-score (-0.5 to 0.5)” has its median near -0.0059; the highest 2% begin near 0.26. Many of the other results were omitted from the sample, so the highest values are more common in it than they were.
# reported PBM E-score; entries follow
Just the number, please, no unit after it.

Worked cases, PBM E-score given:
ATAACGCC	0.0372
TATGTCAA	0.294
GATGACAC	0.0142
CCAGCGAG	-0.0473

*Q* Give Cin5 (UniProt P40917) PBM E-score for AGCGGGCG
*A* -0.0666

*Q* Then AAGGGTAC ?
*A* -0.137

*Q* Then GCTCTTAC ?
*A* 0.021

###

# Subject of test: Cin5 (UniProt P40917)
# Sequence: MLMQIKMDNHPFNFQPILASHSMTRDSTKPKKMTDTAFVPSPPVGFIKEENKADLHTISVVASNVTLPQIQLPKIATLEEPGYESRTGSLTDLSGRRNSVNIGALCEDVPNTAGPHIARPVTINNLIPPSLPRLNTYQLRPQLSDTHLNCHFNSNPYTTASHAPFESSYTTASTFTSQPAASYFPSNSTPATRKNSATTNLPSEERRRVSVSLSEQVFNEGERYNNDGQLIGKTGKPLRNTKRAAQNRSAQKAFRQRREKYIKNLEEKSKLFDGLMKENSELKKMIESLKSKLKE
# Assay text: PBM E-score (8-mer binding enrichment) (E-score (-0.5 to 0.5)); higher = stronger / more preferred TF binding
# Measurement parameters: protein concentration: 100 nM; construct: GST-full length
Whole data set: some 33,000 sequences, median “E-score (-0.5 to 0.5)” near -0.0059, cut for the highest 2% near 0.26. The list comes from a sample in which the highest values are over-represented; it also holds close analogues and randomly drawn sequences.
Assign TRUE whenever PBM E-score does not fall below 0.2; assign FALSE whenever it does.

Examples with answers:
CCTTTGTC	FALSE
CCGTTACG	FALSE
CTCCAGGA	FALSE
AAAAGTTT	FALSE

Proceed to the following item.
*Q* Does PBM E-score meet or surpass 0.2 for ATATCGAA ?
*A* TRUE

###

# Subject of test: Cin5 (UniProt P40917)
# Sequence: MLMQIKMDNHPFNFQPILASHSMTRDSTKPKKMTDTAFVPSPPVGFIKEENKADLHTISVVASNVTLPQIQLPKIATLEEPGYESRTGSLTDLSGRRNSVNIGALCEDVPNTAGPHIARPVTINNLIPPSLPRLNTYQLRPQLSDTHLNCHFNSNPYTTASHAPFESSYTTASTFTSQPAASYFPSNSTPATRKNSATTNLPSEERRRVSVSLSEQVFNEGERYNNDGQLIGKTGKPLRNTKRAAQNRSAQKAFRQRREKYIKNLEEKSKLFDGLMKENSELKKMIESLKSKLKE
# Assay text: PBM E-score (8-mer binding enrichment) (E-score (-0.5 to 0.5)); higher = stronger / more preferred TF binding
# Measurement parameters: protein concentration: 100 nM; construct: GST-full length
Whole data set: some 33,000 sequences, median “E-score (-0.5 to 0.5)” near -0.0059, cut for the highest 2% near 0.26. The entries come from a sample that favours the highest values as a whole.
Assign 1.0 whenever PBM E-score does not fall below 0.1; assign 0.0 whenever it does.

Examples with answers:
ATATATAG	1.0
GTATATAC	1.0
AGCGGTAT	1.0
CACCTTGA	0.0
AGATATGG	1.0

*Q* Does PBM E-score meet or surpass 0.1 for ATGATTAG ?
*A* 1.0

*Q* Then CGTCCCAC ?
*A* 0.0

*Q* Then CTCTAAGC ?
*A* 0.0
